biological target: T1, HER2 expressed on the surface of cells (human, UniProt P04626 23-1255); assay: flow cytometry on MCF7 cells (low HER2), n=1; B50 = concentration at 50% of Bmax
T1 construct: whole, on cells; also called ErbB2
metric name: B50 (nM)
Reply with just the number (in nM).

# B50 lookup, item Variant 14020 (antibody, name in Kabat numbering, V domains shown, also called v14020) VH: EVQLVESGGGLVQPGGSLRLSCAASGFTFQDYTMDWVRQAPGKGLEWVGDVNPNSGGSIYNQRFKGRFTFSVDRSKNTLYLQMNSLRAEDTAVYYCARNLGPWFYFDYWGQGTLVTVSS VL: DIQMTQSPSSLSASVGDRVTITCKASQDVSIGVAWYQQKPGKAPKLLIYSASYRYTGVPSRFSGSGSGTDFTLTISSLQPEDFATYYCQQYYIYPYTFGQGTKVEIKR
2.6

Same question for Variant 12471 (antibody, human IgG1, kappa, name in Kabat numbering, V domains shown, Kabat numbering; also called v12471; FSA version of v9996) VH: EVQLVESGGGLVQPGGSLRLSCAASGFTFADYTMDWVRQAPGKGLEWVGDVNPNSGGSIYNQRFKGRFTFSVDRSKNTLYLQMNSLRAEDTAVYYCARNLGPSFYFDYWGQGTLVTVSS VL: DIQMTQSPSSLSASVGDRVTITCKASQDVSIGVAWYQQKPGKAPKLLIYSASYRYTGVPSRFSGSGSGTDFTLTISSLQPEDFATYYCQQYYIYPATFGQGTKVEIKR please.
1.2

Next record, please: Variant 14019 (antibody, name in Kabat numbering, V domains shown, also called v14019) VH: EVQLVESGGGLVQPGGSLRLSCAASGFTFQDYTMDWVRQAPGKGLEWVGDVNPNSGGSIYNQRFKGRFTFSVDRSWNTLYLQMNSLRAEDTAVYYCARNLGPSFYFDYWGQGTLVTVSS VL: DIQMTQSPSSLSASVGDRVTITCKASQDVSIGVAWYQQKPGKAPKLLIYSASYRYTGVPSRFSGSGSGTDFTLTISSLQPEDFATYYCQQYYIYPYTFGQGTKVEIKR
1.4
